# experimental.target: Voltage-gated potassium channel subunit beta-2 (Rattus norvegicus)
# test.details: inhibitors of rat Kvbeta2 reductase activity – biochemical, NADPH fluorescence, primary screen (AID 622);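 further: slope of raw intensity against log time taken from 70 to 1610 s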
# experimental.setup: recombinant KvBeta, 4-cyanobenzaldehyde reduction, at 10 µM, hits give high values
readout.name: fluorescence slope
One number for each entry.

>>> recorded_measurement("COc1ccc(CNc2ccc(C(=O)O)cc2)cc1")
-0.513
>>> recorded_measurement("Cc1nnc(C)c2c(C)n(Cc3ccc4c(c3)OCO4)c(C)c12")
-0.517
>>> recorded_measurement("O=C(OCCN1C(=O)c2ccccc2C1=O)c1ccc(S(=O)(=O)N2CCCCCC2)cc1")
-0.605
>>> recorded_measurement("Cc1ccc(C)c(-n2c(CNC(=O)c3ccco3)nnc2SCC(=O)Nc2nnc(C)s2)c1")
-0.528
>>> recorded_measurement("CCc1ccc(NC(=O)C2CC(=O)N(C(C)C)C2)cc1 (stereo not drawn)")
-0.62
>>> recorded_measurement("Cc1nnc(SCc2cc(=O)[nH]c(N3CCCCC3)n2)s1")
-0.592

Lab note: each compound below needs its fluorescence slope filled in.
1. CC(C)OC(=O)CN1C(=O)C(C)(C)Oc2ccc(C(=O)NC3CC3)cc21
2. COc1ccc2c(c1OC)C(=O)N(c1ccc3c(c1)CCC3)C2=O

-0.496
-0.499
